- Experiment: in vitro
- Particulars: human, MCF-10A cells
Recorded metric: CC50 at 72 h (µM)
Could you give me the number in µM? Just the number is fine.

Exercise: Dear colleague, I am looking for the recorded CC50 at 72 h of the following molecule: "Cc1cccc(-c2nn3c(c2-c2ccnc4ccc(C(N)=O)cc24)CCC3)n1"
Solution: 19.9

---

- Tested on: TGF-beta receptor type-1 (Mus musculus)
- Sequence (Q64729 whole entry): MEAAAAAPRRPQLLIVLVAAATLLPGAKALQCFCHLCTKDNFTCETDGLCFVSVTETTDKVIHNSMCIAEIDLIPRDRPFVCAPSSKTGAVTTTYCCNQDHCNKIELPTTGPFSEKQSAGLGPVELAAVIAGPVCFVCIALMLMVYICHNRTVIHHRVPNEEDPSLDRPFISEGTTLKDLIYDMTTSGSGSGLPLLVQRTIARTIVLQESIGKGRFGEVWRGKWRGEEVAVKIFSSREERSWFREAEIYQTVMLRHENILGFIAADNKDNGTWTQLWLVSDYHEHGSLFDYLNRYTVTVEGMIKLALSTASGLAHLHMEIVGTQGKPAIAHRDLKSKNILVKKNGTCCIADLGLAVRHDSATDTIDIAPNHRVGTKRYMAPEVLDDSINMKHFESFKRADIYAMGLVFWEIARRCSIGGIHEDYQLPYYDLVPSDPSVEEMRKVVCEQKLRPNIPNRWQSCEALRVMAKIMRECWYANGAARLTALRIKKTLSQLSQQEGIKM
- Experiment: Inhibition of ALK5 signaling in mouse NIH3T3 cells transfected with (CAGA)12-luciferase reporter incubated for 18 hrs in presence of TGF-beta1 by dual-luciferase reporter assay
- Type: cell-based
Recorded metric: EC50 (nM)
Could you give me the number in nM? Just the number is fine.

Exercise: Dear colleague, I am looking for the recorded EC50 of the following molecule: CC(C)(C)OC(=O)N1CCC(Cn2nc(-c3ccc4[nH]ccc4c3)c3c(N)ncnc32)C1 (stereo not drawn)
Solution: 363

Exercise: Next record, please: "Nc1ncnc2c1c(-c1ccc3[nH]ccc3c1)nn2CCC1CCN(S(=O)(=O)C2CC2)CC1"
Solution: 105

Exercise: Next record, please: "Nc1ncnc2c1c(-c1ccc3[nH]ccc3c1)nn2CCC1CCN(S(=O)(=O)c2cccc(Cl)c2)CC1"
Solution: 1320

Exercise: Next record, please: "COc1cc(F)cc(-c2nn(CCC3CCN(C(C)=O)CC3)c3ncnc(N)c23)c1"
Solution: 430

Exercise: Next record, please: "CC(=O)N1CCC(CCn2nc(-c3ccc4c(ccn4C)c3)c3c(N)ncnc32)CC1"
Solution: 283

Exercise: Next record, please: "CC(=O)N1CCC(CCn2nc(-c3cc4cc[nH]c4cc3C)c3c(N)ncnc32)CC1"
Solution: 403

Exercise: Next record, please: "CC(=O)N1CCC(CCn2nc(-c3ccc4[nH]ncc4c3)c3c(N)ncnc32)CC1"
Solution: 295

Exercise: Next record, please: "Nc1ncnc2c1c(-c1ccc3[nH]ccc3c1)nn2CCC1CCN(S(=O)(=O)c2ccc3ccccc3c2)CC1"
Solution: 971

Exercise: Next record, please: "CC(C)(C)OC(=O)N1CCC(CCn2nc(-c3ccc4[nH]ccc4c3)c3c(N)ncnc32)CC1"
Solution: 441

Exercise: Next record, please: "Nc1ncnc2c1c(-c1ccc3[nH]ccc3c1)nn2-c1ccc2cc[nH]c2c1"
Solution: 525

Exercise: Next record, please: "CC(=O)N1CCC(CCn2nc(-c3ccc(N)cc3C)c3c(N)ncnc32)CC1"
Solution: 302

Exercise: Next record, please: "CCCS(=O)(=O)N1CCC(CCn2nc(-c3ccc4[nH]ccc4c3)c3c(N)ncnc32)CC1"
Solution: 45.9

Exercise: Next record, please: "Nc1ncnc2c1c(-c1ccc3[nH]ccc3c1)nn2CCC1CCN(S(=O)(=O)c2ccc(C(F)(F)F)cc2)CC1"
Solution: 303

Exercise: Next record, please: "CC(=O)N1CCC(CCn2nc(-c3ccc4[nH]ccc4c3)c3c(N)ncnc32)CC1"
Solution: 29.6

Exercise: Next record, please: CC(C)(C)OC(=O)N1CCCC(Cn2nc(-c3ccc4[nH]ccc4c3)c3c(N)ncnc32)C1 (stereo not drawn)
Solution: 689

Exercise: Next record, please: "COc1ccccc1C(=O)N1CCC(CCn2nc(-c3ccc4[nH]ccc4c3)c3c(N)ncnc32)CC1"
Solution: 665

Exercise: Next record, please: "CC(C)(C)C(=O)N1CCC(CCn2nc(-c3ccc4[nH]ccc4c3)c3c(N)ncnc32)CC1"
Solution: 138

Exercise: Next record, please: "CC(=O)N1CCC(CCn2nc(-c3ccc4ncsc4c3)c3c(N)ncnc32)CC1"
Solution: 130

Exercise: Next record, please: "Nc1ncnc2c1c(-c1ccc3[nH]ccc3c1)nn2CCC1CCN(S(=O)(=O)c2ccccc2Cl)CC1"
Solution: 856

Exercise: Next record, please: "CC(C)(C)OC(=O)N1CCC(Cn2nc(-c3ccc4[nH]ccc4c3)c3c(N)ncnc32)CC1"
Solution: 374

Exercise: Next record, please: "CCCCS(=O)(=O)N1CCC(CCn2nc(-c3ccc4[nH]ccc4c3)c3c(N)ncnc32)CC1"
Solution: 176

Exercise: Next record, please: "CC(C)(C)OC(=O)N1CC(Cn2nc(-c3ccc4[nH]ccc4c3)c3c(N)ncnc32)C1"
Solution: 750

Exercise: Next record, please: "C#CCCCC(=O)N1CCC(CCn2nc(-c3ccc4[nH]ccc4c3)c3c(N)ncnc32)CC1"
Solution: 465

Exercise: Next record, please: "CC(=O)N1CCC(CCn2nc(-c3ccc4[nH]c(C)cc4c3)c3c(N)ncnc32)CC1"
Solution: 105

Exercise: Next record, please: "Nc1ncnc2c1c(-c1ccc3[nH]ccc3c1)nn2CCC1CCN(S(=O)(=O)c2cccs2)CC1"
Solution: 607

Exercise: Next record, please: "CC(C)S(=O)(=O)N1CCC(CCn2nc(-c3ccc4[nH]ccc4c3)c3c(N)ncnc32)CC1"
Solution: 131

Exercise: Next record, please: "CC(=O)c1nn(CCC2CCN(C(C)=O)CC2)c2ncnc(N)c12"
Solution: 485

Exercise: Next record, please: "CC(C)(C)OC(=O)N1CCC(CCCn2nc(-c3ccc4[nH]ccc4c3)c3c(N)ncnc32)CC1"
Solution: 998

Exercise: Next record, please: "CC(C)(C)OC(=O)N1CCN(CCn2nc(-c3ccc4[nH]ccc4c3)c3c(N)ncnc32)CC1"
Solution: 488

Exercise: Next record, please: "CC(=O)N1CCC(CCn2nc(-c3coc4ccccc34)c3c(N)ncnc32)CC1"
Solution: 682
